# Tested target: glucagon receptor (UniProt P47871 26-477, limits assumed)
# Sequence (P47871 26-477 limits assumed): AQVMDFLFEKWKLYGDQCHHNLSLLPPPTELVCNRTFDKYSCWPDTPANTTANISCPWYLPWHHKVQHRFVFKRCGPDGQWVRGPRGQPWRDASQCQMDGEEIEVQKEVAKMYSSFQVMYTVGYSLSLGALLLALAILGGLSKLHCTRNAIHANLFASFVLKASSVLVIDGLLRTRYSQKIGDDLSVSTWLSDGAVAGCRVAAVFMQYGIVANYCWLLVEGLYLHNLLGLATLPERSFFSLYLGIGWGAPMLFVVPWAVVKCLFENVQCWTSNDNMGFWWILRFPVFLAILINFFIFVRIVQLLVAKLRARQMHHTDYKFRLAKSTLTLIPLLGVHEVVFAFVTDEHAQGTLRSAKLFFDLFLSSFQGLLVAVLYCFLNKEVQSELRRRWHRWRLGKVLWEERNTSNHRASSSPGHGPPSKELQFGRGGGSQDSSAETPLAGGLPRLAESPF
# Test description: cell-based or functional assay
Numbered stars: 1 amine (or outer) side, 2 acyl side, 3 side chain; on linkers, the order of the positions; unused ones are H or OH. Side chains are listed from the residue outwards. Ends that are not written are not given here. * marks the point of attachment. C18 diacid = O=C(O)CCCCCCCCCCCCCCCCC(=O)*; γGlu = O=C(O)[C@H](CCC(=O)[*:2])N[*:1]; AEEA = NCCOCCOCC(=O)O
Below, each entry is listed alongside its reported Assay (I) Glucagon [EC50].
Please reply with the bare figure in nM and do not write the unit itself.

Known results for binders:
binder="HSQGTFTSDYSKYLDSRRAQEFVK([AEEA-AEEA-γGlu-C18 diacid])WLLNT" quantity_unit=nM value_reported=0.021
binder="HSQGTFTSDYSKYLDK([AEEA-AEEA-γGlu-C18 diacid])KKAQEFVQWLLNT" quantity_unit=nM value_reported=0.02
binder="HSQGTFTSDYSRYLDSRRAQDFVK([AEEA-AEEA-γGlu-C18 diacid])WLLNT" quantity_unit=nM value_reported=0.109
binder="HSQGTFTSDYSKYLDK([AEEA-AEEA-γGlu-C18 diacid])KRAQEFVQWLLNT" quantity_unit=nM value_reported=0.02
binder="HSQGTFTSDYSKYLDSRRAQDFVK([AEEA-AEEA-γGlu-C18 diacid])WLLTT" quantity_unit=nM value_reported=0.024

Notebook: HSQGTFTSDYSKYLDSRRAQDFVQK([AEEA-AEEA-γGlu-C18 diacid])LLNT , Assay (I) Glucagon [EC50] read as 0.155

Provenance of the data: patent US20130143798A1
